- targetOrSystem: Progesterone receptor (Homo sapiens) (UniProt P06401)
- Sequence (P06401 whole entry, looked up): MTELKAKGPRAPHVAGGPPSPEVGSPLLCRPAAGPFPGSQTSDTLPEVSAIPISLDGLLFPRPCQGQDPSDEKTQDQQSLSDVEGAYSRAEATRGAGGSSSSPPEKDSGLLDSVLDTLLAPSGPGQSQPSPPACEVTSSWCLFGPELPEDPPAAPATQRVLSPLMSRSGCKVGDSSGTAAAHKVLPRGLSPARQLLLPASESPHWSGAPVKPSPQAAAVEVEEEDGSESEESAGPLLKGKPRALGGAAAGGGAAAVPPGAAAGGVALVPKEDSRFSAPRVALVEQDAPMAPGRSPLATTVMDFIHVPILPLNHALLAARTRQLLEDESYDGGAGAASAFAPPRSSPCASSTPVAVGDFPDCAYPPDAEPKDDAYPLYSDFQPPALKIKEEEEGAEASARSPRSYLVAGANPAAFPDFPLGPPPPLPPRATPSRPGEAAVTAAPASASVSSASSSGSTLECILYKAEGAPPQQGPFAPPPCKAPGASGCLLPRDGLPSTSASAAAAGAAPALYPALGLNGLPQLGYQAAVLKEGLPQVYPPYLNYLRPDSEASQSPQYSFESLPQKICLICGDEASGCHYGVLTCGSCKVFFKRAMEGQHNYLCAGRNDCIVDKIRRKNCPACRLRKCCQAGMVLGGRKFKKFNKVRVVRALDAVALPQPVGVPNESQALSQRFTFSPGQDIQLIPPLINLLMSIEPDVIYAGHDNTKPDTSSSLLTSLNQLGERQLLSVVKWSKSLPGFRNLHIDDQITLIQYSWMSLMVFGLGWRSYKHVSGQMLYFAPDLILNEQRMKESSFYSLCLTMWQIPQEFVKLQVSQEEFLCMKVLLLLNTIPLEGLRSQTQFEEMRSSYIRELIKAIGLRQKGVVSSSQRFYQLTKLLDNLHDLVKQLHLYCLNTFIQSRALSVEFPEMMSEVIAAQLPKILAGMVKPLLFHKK
- assaySummary: qHTS assay to identify small molecule agonists of the progesterone receptor (PR) signaling pathway (AID 1346784); note: nearly all actives have a fitted effect of over 30% in size
- measurementSetup: PR-UAS-bla HEK293T, beta-lactamase FRET ratio, 16 h; series mostly up to 92.4 µM
- Text: U.S. Tox21 Program National Center for Advancing Translational Sciences [NCATS] NIH Chemical Genomics Center [NCGC] U.S. Environmental Protection Agency [EPA] National Institutes of Environmental Health Sciences [NIEHS] National Toxicology Program [NTP] U.S. Food and Drug Administration [FDA] […] Endocrine disrupting chemicals (EDCs) and their interactions with steroid hormone receptors like PR causes disruption of normal endocrine function. […]
Inconclusive results are not listed. Calls of active or inactive are those of the source. Calls come from the whole dose curve.
measuredQuantity: outcome

Example entries begin here.
>>> assayvalue("CC/C(=C(\\c1ccccc1)c1ccc(OCCN(C)C)cc1)c1ccccc1")
"inactive"
>>> assayvalue("Cc1cc(=O)oc2cc(O)ccc12")
"inactive"
>>> assayvalue("Cc1cc(C)nc(NS(=O)(=O)c2ccc(N)cc2)n1")
"inactive"
>>> assayvalue("CNNCc1ccc(C(=O)NC(C)C)cc1")
"inactive"
>>> assayvalue("Cn1c(=O)c2c(ncn2C)n(C)c1=O")
"inactive"

Give measured outcome for every item shown.
1. Cc1ncc([N+](=O)[O-])n1C
2. C1=CC2C3C=CC(C3)C2C1 (stereo not drawn)
3. CC(C)C(=O)Nc1ccc([N+](=O)[O-])c(C(F)(F)F)c1
4. O=C1NS(=O)(=O)c2ccccc21

Response:
1. inactive
2. inactive
3. inactive
4. inactive

Give measured outcome for every item shown.
1. CC12CCC(CC1)C(C)(C)O2
2. O=S1(=O)OC(c2ccc(O)cc2)(c2ccc(O)cc2)c2ccccc21
3. Nc1ccc(S(N)(=O)=O)cc1
4. CN(C)C(=O)Nc1ccc(Cl)c(Cl)c1

Response:
inactive
inactive
inactive
inactive
